Reported log2 fold change of degron read counts values for a set of sequences
Molecular target: T1, CRBN, Q96SW2;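 also: pooled lentiviral library of zinc finger degron-EGFP fusions in mCherry-positive Jurkat cells, FACS-sorted after compound exposure, with degron abundance counted by next-generation sequencing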
T1 chain: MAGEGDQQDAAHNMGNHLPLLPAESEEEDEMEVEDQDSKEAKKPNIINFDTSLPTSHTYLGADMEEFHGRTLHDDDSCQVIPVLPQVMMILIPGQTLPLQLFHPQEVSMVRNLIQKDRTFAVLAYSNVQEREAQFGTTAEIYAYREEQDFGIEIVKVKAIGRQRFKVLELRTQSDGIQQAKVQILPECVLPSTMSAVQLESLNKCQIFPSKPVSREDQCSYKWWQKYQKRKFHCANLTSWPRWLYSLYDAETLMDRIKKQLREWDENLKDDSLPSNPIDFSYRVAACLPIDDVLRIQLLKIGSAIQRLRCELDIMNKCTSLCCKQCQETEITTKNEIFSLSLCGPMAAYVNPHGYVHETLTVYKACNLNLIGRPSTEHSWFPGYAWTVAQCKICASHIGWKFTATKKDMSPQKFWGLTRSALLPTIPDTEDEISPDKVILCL
Test: log2 fold change of degron read counts, EGFP-low vs EGFP+ sorted cells (limma voom), compound-induced degradation; higher = more compound-induced degradation of the degron-EGFP fusion; degrons are variants of IKZF1/3 zinc finger 2; compound dose not given here
Details: Jurkat; 18 h; compound: compound 19 (5-tert-butyl-thalidomide)
In all, about 8,300 sequences were measured (“log2 fold change of degron read counts, EGFP-low vs EGFP+ sorted cells (limma voom), compound-induced degradation”: median about -1.1, highest 2% from about 3.2 on). The sample holds the highest values, similar sequences and a random draw of the others, so the mix is not that of the screen.
Returns: the value as a bare number; no unit string appended.

Some entries whose results are on file:
[
  {
    "SEQUENCE CONTENT": "FQCPVCGAPFTQKGNLLRHIKL [46F_47Q_49P_50V_52G_53A_54P_55F_67L_, Q9UKT9]",
    "log2 fold change of degron read counts": 3.11
  },
  {
    "SEQUENCE CONTENT": "FLCNVCGAPFTQKGNLLRHIKL [46F_47L_49N_50V_52G_53A_54P_55F_67L_, Q9UKT9]",
    "log2 fold change of degron read counts": -0.289
  }
]

**Q:** Value lookup for log2 fold change of degron read counts; key = FRCNVCGAPFTQKGNLLRHIKL [46F_47R_49N_50V_52G_53A_54P_55F_67L_, Q9UKT9]
**A:** 2.26

**Q:** Query: log2 fold change of degron read counts; subject: FSCEICGREFTQKGNLLRHIKL [46F_47S_49E_50I_52G_53R_54E_55F_67L_, Q9UKT9]
**A:** -2.51

**Q:** Quick one: log2 fold change of degron read counts of FFCEICGRYFTQKGNLLRHIKL [46F_47F_49E_50I_52G_53R_54Y_55F_67L_, Q9UKT9] ?
**A:** 0.941

**Q:** Looking for the measured log2 fold change of degron read counts of FWCNVCGATFTQKGNLLRHIKL [46F_47W_49N_50V_52G_53A_54T_55F_67L_, Q9UKT9] , can you help?
**A:** -0.873

**Q:** What log2 fold change of degron read counts value was documented for this sequence, FGCDVCGAPFTQKGNLLRHIKL [46F_47G_49D_50V_52G_53A_54P_55F_67L_, Q9UKT9] ?
**A:** -1.15

Data origin: the supplement of paper PMC12645437
